# System: human cervical carcinoma cells (Hela)
# protocolDescription: MTT proliferation inhibition, Hela
# testContext: Homo sapiens, HeLa, 48 h
pIC50: −log10 of the molar value.
property: pIC50

compound	system	property	value
CC(=O)OC(CC(=O)OC1CCC(Nc2cc(-n3nc(C)c4c3CC(C)(C)CC4=O)ccc2C(N)=O)CC1)C[N+](C)(C)C.[Cl-] (stereo not shown)	human cervical carcinoma cells (Hela)	pIC50	4.99

---

# System: Herpes Simplex Virus Type II Strain 333 (HSV-2 333)
# protocolDescription: Plaque reduction assay (PRA), HSV-2
# Format: cell-based
# testContext: Human alphaherpesvirus 2; plaque reduction, Vero, n = 3; read-out: Antiviral activity HSV-2 IC50
// values below are reported IC50

compound	system	IC50 / µM
CC(=O)OC(CC(=O)OC1CCC(Nc2cc(-n3nc(C)c4c3CC(C)(C)CC4=O)ccc2C(N)=O)CC1)C[N+](C)(C)C.[Cl-] (centres unmarked)	Herpes Simplex Virus Type II Strain 333 (HSV-2 333)	3.2
Nc1nc2c(ncn2COCCO)c(=O)[nH]1 [ACV, Acyclovir, reference compound]	Herpes Simplex Virus Type II Strain 333 (HSV-2 333)	3.32
